Target sequence: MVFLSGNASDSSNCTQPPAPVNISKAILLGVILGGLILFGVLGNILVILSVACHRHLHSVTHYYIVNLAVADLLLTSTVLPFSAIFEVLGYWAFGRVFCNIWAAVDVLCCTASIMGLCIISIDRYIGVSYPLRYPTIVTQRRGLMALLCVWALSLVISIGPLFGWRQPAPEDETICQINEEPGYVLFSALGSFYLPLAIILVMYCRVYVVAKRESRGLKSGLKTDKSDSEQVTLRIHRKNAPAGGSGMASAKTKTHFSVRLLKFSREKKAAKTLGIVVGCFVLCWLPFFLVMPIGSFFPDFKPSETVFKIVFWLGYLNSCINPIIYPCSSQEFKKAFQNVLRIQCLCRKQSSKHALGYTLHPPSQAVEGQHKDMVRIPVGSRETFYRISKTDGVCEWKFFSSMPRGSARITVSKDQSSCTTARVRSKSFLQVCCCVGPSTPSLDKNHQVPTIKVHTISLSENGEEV
endpoint-label: Ki
Please format your answer as a value with the unit trailing.

| compound | endpoint-label | result |
| --- | --- | --- |
| COc1cc2nc(N3CCN(C(=O)c4ccco4)[C@H]4CCCC[C@H]43)nc(N)c2cc1OC | Ki | 5.5 nM |
| COc1cc2nc(N(C)CCCCCCN(C)C(=O)C3COc4ccccc4O3)nc(N)c2cc1OC (stereo not drawn) | Ki | 1.86 nM |

// below: Ki requested for another compound
Any idea what Ki was measured for COc1cc2nc(N3CCN(C(=O)C4COc5ccccc5O4)[C@@H]4CCCC[C@@H]43)nc(N)c2cc1OC (single isomer, unassigned) ?
3.39 nM
